- tested.system: T1, His-tagged PCSK9Δhelix (human, UniProt Q8NBP7 31-152; Q8NBP7 168-692)
- T1 construct: Construct M1-Q692 with engineered TEV site, cut by TEV protease; new N-terminus of the catalytic domain is S-A168; also called His-PCSK9Δhelix
- T1 sequence (Q8NBP7 31-152, stated change not applied, chain 1 of 2): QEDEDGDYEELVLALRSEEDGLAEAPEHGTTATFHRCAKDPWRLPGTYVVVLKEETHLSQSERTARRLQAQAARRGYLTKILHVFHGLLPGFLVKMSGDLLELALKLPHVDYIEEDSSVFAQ
- T1 sequence (Q8NBP7 other isoform, or with tags, fused parts or gaps mutant, chain 2 of 2): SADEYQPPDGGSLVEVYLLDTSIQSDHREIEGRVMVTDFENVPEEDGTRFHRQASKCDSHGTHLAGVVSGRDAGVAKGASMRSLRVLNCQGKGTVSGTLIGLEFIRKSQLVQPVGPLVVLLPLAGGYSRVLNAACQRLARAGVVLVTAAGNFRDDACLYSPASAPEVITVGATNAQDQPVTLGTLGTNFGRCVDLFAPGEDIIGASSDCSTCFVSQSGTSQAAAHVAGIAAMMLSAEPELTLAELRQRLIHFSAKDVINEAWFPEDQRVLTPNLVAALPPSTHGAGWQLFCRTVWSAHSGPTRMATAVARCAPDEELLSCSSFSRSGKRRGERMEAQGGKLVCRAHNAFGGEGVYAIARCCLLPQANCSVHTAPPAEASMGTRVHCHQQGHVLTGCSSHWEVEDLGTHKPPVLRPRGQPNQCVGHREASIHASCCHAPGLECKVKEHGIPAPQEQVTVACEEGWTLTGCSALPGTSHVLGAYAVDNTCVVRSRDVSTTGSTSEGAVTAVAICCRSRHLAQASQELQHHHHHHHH
- test.description: TR-FRET competition; His-PCSK9Δhelix, competitor Ab20
Square brackets hold non-standard residues; d marks the D form. Ends that are not written are not given here. hArg = N=C(N)NCCCC[C@H](N)C(=O)O
Here, each record is paired with measured IC50 data.
recorded.metric: IC50 (nM)

INSERT INTO measurements (binder, recorded_metric, experimental_value) VALUES
  ('WNLVRIGLLR (also: further groups not given here, Structure printed only as a drawing) [Compound 126]', 'IC50', 19000),
  ('WNLVRIGLTR (also: further groups not given here, Structure printed only as a drawing) [Compound 166]', 'IC50', 5900),
  ('WNLV[hArg]IGLLR (also: further groups not given here, Structure printed only as a drawing) [Compound 225]', 'IC50', 1800),
  ('WNLV[hArg]IGLLR (also: further groups not given here, Structure printed only as a drawing) [Compound 222]', 'IC50', 1400),
  ('WNLV[hArg]IGLLR (also: further groups not given here, Structure printed only as a drawing) [Compound 215]', 'IC50', 480),
  ('Ac-DLMPWNLVRIGLPR-NH2 [Compound 160]', 'IC50', 19000),
  ('WNLV[hArg]IGLLR (also: end groups and other groups only in drawing, Structure printed only as a drawing) [Compound 201]', 'IC50', 1000),
  ('WNLV[hArg]IGLLR (also: further groups not given here, Structure printed only as a drawing) [Compound 220]', 'IC50', 910),
  ('Ac-WNLV[hArg]IGLLR-NH2 (also called Ac-WNLV(homoR)IGLLR-NH2) [Compound 192]', 'IC50', 5300),
  ('WNLV[hArg]IGLLR (also: further groups not given here, Structure printed only as a drawing) [Compound 219]', 'IC50', 680);
